# MEASUREMENT TARGET: GcoA (Amycolatopsis sp., UniProt P0DPQ7)
# Construct: GST (N, cleaved yes); made in house; host or cells: E. coli Rosetta 2 (DE3)
# Sequence (P0DPQ7 1-407): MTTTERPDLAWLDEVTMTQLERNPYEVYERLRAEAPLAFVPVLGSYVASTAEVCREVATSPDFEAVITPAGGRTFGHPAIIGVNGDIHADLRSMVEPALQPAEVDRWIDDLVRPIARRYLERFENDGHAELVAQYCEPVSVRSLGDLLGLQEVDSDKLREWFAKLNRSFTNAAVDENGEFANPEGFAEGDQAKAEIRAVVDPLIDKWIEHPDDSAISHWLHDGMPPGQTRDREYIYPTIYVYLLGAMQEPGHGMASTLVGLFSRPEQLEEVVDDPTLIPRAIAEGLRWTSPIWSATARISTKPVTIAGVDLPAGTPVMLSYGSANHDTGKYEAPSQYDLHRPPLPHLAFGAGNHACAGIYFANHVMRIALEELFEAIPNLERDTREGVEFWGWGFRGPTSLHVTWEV
# PROTOCOL NOTES: Determination of substrate dissociation constants with GcoA (UV/vis spectral shift titration; fluorescence quenching for vanillin)
# Type: binding
# DETAILS: binding to GcoA; read-out: KD
REPORTED METRIC: Kd (nM)
Write down the numeric answer in nM and omit the unit.

For COc1ccccc1O [Guaiacol, 2-methoxyphenol] , what is its reported Kd?
6
